subject_of_test: T1, recombinant mouse Clec4F (CLEC4F/CLECSF13), soluble extracellular domain Ala65-Gly548 (Mus musculus, UniProt P70194)
T1 construct: Clec4F (C-type lectin domain family 4, member F), mouse, soluble extracellular domain Ala65-Gly548; the oligomeric state of the bought protein was not measured here; also called mClec4F; mouse Kupffer cell receptor Clec4F; source: bought: R&D Systems (NS0-derived, mouse myeloma cell line)
assay_overview: SPR; Biacore T200; 400 RU of recombinant mouse Clec4F coupled to a CM5 chip; nanobodies flown at 30 ul/min at 1-400 nM; 1:1 binding model
assay_conditions: both partners purified
test_readout: kon (M⁻¹ s⁻¹)
# number only, unit M⁻¹ s⁻¹ dropped from output

q: May I ask what kon has been recorded for Nb6.4 (VHH, also called R3-4; group G6; source: E. coli WK6 periplasm, purified (IMAC Ni-NTA, dialysis)) VHH: QVQLVESGGGLVQPGGSLTLSCAASGFTISNYAMKWDRQAPGKGFEWVSTINSDGDNTSYRDSVKGRFTISRDNAKNTLYLQMNSLKPEDTAVYYCSNGGRRGQGTQVTVSS ?
a: 1.16e+06

q: May I ask what kon has been recorded for Nb2.22 (VHH, Labelled with 99mTc through its His tag for the biodistribution test only; also called R3-22; group G2; source: E. coli WK6 periplasm, purified (IMAC Ni-NTA, dialysis; size exclusion chromatography for the later tests); not shown: His6, C-terminal, kept) VHH: QVQLVESGGGLVQAGGSLRLSCAASGATFITYGMTWFRQAPGKEREFVAAVTGNGAGTTYLPSVKGRFTISRDNAKNTVYLQMSSLKPEDTAVYYCGGRRWVPATAVDQVAYWGQGTQVTVSS ?
a: 8.24e+06

q: May I ask what kon has been recorded for Nb3.60 (VHH, The preparation held dimers beside monomers (SDS-PAGE); also called R2-60; group G3; source: E. coli WK6 periplasm, purified (IMAC Ni-NTA, dialysis)) VHH: QVQLVESGGGLVQPGGSLRLSCVASGTIFSMYGVYWYRQAPGNQREVVAWISSSGNTNYVNAVKGRFTISRDNAKNTTWLQMHSLKPEDAAVYYCRLGMNYWGKGTQVTVSS ?
a: 7.69e+06

q: May I ask what kon has been recorded for Nb11.16 (VHH, also called R3-16; group G11; source: E. coli WK6 periplasm, purified (IMAC Ni-NTA, dialysis)) VHH: QVQLVESGGGLVQAGGSLRLSCVASGGTFSNYRMAWFRQAPGKEREFVSLITRSGGSTYYADSVKGRFTISRDNAKNTVSLQMNTLKPEDTAVYTCAATPRFDSYSNYIRTNGYDYWGQGTQVTVSS ?
a: 2.32e+07
